- Subject of test: TAFIa (Homo sapiens, UniProt Q96IY4)
- Sequence (Q96IY4 115-423): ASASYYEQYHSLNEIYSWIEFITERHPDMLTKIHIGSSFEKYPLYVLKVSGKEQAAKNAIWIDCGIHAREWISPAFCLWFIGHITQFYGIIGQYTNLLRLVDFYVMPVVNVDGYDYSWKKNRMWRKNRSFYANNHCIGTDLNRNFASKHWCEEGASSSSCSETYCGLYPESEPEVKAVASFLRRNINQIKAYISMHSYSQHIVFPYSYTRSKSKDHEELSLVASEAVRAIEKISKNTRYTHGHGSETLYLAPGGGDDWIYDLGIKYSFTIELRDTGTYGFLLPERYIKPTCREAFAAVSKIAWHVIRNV
- Assay method text: Inhibition of TAFIa (hippuryl-Arg test)
- Format: biochemical
- Condition set: compound at 20 nM; TAFIa 2 nM, hippuryl-arginine 5 mM, 45 minutes; relative to control containing the carrier
- Experimental: Human TAFI (4 nM) is incubated with human thrombin (10 nM) and human thrombomodulin (5 nM) in the presence of calcium (10 mM). […] The test compound is added to the solution of TAFIa (2 nM) and incubated for 45 minutes in the presence of hippuryl-arginine (5 mM). […] The supernatant is transferred to a 96-well microplate, and the absorbance is measured using a spectrophotometer at 405 nm (Spectramax plus, Molecular Devices). […]
Classification field: enter true for inhibition at 0.02 µM values not below 90%, false for values below it.

Record excerpt, results attached:
>  <Compound>
NCCCC[C@@]1(C(=O)O)CN(Cc2ccc(F)cc2-c2cnc3ccccn23)CCP1(=O)O [Example 220]

>  <Subject of test>
TAFIa (Homo sapiens, UniProt Q96IY4)

>  <Class assignment>
true

$$$$
>  <Compound>
COc1ccc(-c2cc(F)ccc2CN2CCP(=O)(O)[C@](CCCCN)(C(=O)O)C2)cn1 [Example 239]

>  <Subject of test>
TAFIa (Homo sapiens, UniProt Q96IY4)

>  <Class assignment>
true

$$$$
>  <Compound>
COc1ccc(-c2ccccc2CN2CCP(=O)(O)[C@](CCCCN)(C(=O)O)C2)cc1OC [Example 248]

>  <Subject of test>
TAFIa (Homo sapiens, UniProt Q96IY4)

>  <Class assignment>
true

$$$$
>  <Compound>
NCCCC[C@@]1(C(=O)O)CN(Cc2ccc(Cl)cc2-c2ccc(F)cc2)CCP1(=O)O [Example 210]

>  <Subject of test>
TAFIa (Homo sapiens, UniProt Q96IY4)

>  <Class assignment>
false

$$$$
>  <Compound>
NCCCCC1(C(=O)O)CN(Cc2ccccc2-c2nccs2)CCP1(=O)O (centres unmarked) [Example 108]

>  <Subject of test>
TAFIa (Homo sapiens, UniProt Q96IY4)

>  <Class assignment>
false

$$$$

Problem: Answer whether inhibition at 0.02 µM of NCCCC[C@@]1(C(=O)O)CN(Cc2ccc(O)cc2-c2ccncc2)CCP1(=O)O [Example 225] is greater than or equal to 90%.
Result: false

Problem: Answer whether inhibition at 0.02 µM of NCCCC[C@@]1(C(=O)O)CN(Cc2ccc(O)cc2-c2ccccc2)CCP1(=O)O [Example 191] is greater than or equal to 90%.
Result: false

====

- Subject of test: UniProt Q96IY4
- Assay method text: Inhibition of TAFIa (hippuryl-Arg test)
- Assay type: biochemical
- Condition set: compound at 20 nM; TAFIa 2 nM, hippuryl-arginine 5 mM, 45 minutes; relative to control containing the carrier
Response field class: enum, chosen by comparing inhibition at 0.02 µM against LOW (below 80%), MID (80% to below 90%), HIGH (90% or more)

Record excerpt, results attached:
>  <Compound>
NCCCCC1(C(=O)O)CN(Cc2ccccc2-c2cnc3ccccn23)CCP1(=O)O (centres unmarked)

>  <Class assignment>
LOW

$$$$
>  <Compound>
NCCCC[C@@]1(C(=O)O)CN(Cc2ccccc2-c2cncc3ccccc23)CCP1(=O)O

>  <Class assignment>
MID

$$$$
>  <Compound>
NCCCC[C@@]1(C(=O)O)CN(Cc2ccc(F)cc2-c2cccnc2)CCP1(=O)O

>  <Class assignment>
HIGH

$$$$
>  <Compound>
COc1ccc(-c2cc(F)ccc2CN2CCP(=O)(O)[C@](CCCCN)(C(=O)O)C2)cc1

>  <Class assignment>
HIGH

$$$$
>  <Compound>
NCCCCC1(C(=O)O)CN(Cc2ccc(F)cc2-c2ccc(O)cc2)CCP1(=O)O (centres unmarked)

>  <Class assignment>
LOW

$$$$

Problem: Given Cc1ncc(-c2cc(F)ccc2CN2CCP(=O)(O)[C@](CCCCN)(C(=O)O)C2)n1C , name the class its inhibition at 0.02 µM places it in.
Result: HIGH

Problem: Given NCCCC[C@@]1(C(=O)O)CN(Cc2ccc(F)cc2-c2cc3ccccc3s2)CCP1(=O)O , name the class its inhibition at 0.02 µM places it in.
Result: MID

Problem: Given NCCCC[C@@]1(C(=O)O)CN(Cc2ccc(F)cc2-c2cc[nH]c(=O)c2)CCP1(=O)O , name the class its inhibition at 0.02 µM places it in.
Result: MID

Problem: Given NCCCC[C@@]1(C(=O)O)CN(Cc2ccccc2-c2ccc3ccccc3c2)CCP1(=O)O , name the class its inhibition at 0.02 µM places it in.
Result: MID

Problem: Given COc1cccc(-c2cc(F)ccc2CN2CCP(=O)(O)[C@](CCCCN)(C(=O)O)C2)n1 , name the class its inhibition at 0.02 µM places it in.
Result: LOW

Problem: Given Cn1nccc1-c1ccccc1CN1CCP(=O)(O)[C@](CCCCN)(C(=O)O)C1 , name the class its inhibition at 0.02 µM places it in.
Result: LOW

====

Please respond with reported inhibition at 0.01 µM for every item in the list.
- Subject of test: TAFIa (Homo sapiens, UniProt Q96IY4)
- Sequence (Q96IY4 115-423): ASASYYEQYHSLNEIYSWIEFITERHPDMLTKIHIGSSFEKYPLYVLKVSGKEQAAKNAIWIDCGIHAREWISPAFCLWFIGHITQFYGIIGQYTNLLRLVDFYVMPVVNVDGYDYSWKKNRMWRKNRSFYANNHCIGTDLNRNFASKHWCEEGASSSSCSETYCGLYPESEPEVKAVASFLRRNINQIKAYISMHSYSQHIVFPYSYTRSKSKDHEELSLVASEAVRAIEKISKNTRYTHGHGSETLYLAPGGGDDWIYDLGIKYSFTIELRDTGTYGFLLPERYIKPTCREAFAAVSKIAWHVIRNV
- Assay method text: Inhibition of TAFIa (hippuryl-Arg test)
- Format: biochemical
- Condition set: compound at 10 nM; TAFIa 2 nM, hippuryl-arginine 5 mM, 45 minutes; relative to control containing the carrier
- Protocol: Human TAFI (4 nM) is incubated with human thrombin (10 nM) and human thrombomodulin (5 nM) in the presence of calcium (10 mM). […] The test compound is added to the solution of TAFIa (2 nM) and incubated for 45 minutes in the presence of hippuryl-arginine (5 mM). […] The supernatant is transferred to a 96-well microplate, and the absorbance is measured using a spectrophotometer at 405 nm (Spectramax plus, Molecular Devices). […]
Answers are plain numbers, in %.

// known answers, use as guide
>  <Compound>
NCCCC[C@@]1(C(=O)O)CN(Cc2ccc(F)cc2-c2ccc3ccccc3c2)CCP1(=O)O [Example 215]

>  <inhibition at 0.01 µM (%)>
82

$$$$
>  <Compound>
NCCCCC1(C(=O)O)CN(Cc2ccccc2-c2cnc3ccccn23)CCP1(=O)O (centres unmarked) [Example 167]

>  <inhibition at 0.01 µM (%)>
61

$$$$
>  <Compound>
Cc1ccc(-c2ccccc2CN2CCP(=O)(O)[C@](CCCCN)(C(=O)O)C2)cc1 [Example 188]

>  <inhibition at 0.01 µM (%)>
64

$$$$
>  <Compound>
NCCCC[C@@]1(C(=O)O)CN(Cc2ccc(F)cc2-c2ccncc2)CCP1(=O)O [Example 192]

>  <inhibition at 0.01 µM (%)>
77

$$$$
>  <Compound>
NCCCC[C@@]1(C(=O)O)CN(Cc2ccccc2-c2ccc(F)cc2)CCP1(=O)O [Example 197]

>  <inhibition at 0.01 µM (%)>
60

$$$$

Please look at the items below and tell me inhibition at 0.01 µM for each one, in order.
1. Cn1cc(-c2cc(F)ccc2CN2CCP(=O)(O)[C@](CCCCN)(C(=O)O)C2)cn1 [Example 212]
2. NCCCC[C@@]1(C(=O)O)CN(Cc2ccc(Cl)cc2-c2ccc(Cl)cc2)CCP1(=O)O [Example 195]
3. NCCCC[C@@]1(C(=O)O)CN(Cc2ccc(O)cc2-c2ccccc2)CCP1(=O)O [Example 191]

Result:
1: 62; 2: 74; 3: 66

====

- Subject of test: TAFIa (Homo sapiens, UniProt Q96IY4)
- Assay method text: Inhibition of TAFIa (hippuryl-Arg test)
- Type: biochemical
- Condition set: compound at 10 nM; TAFIa 2 nM, hippuryl-arginine 5 mM, 45 minutes; relative to control containing the carrier
Quantity kind: inhibition at 0.01 µM (%)
Give bare numbers, in %.

Please look at the items below and tell me inhibition at 0.01 µM for each one, in order.
1. NCCCC[C@@]1(C(=O)O)CN(Cc2ccc(F)cc2-c2ccc(F)cc2)CCP1(=O)O
2. NCCCCC1(C(=O)O)CN(Cc2ccc(Cl)cc2-c2ccc(Cl)cc2)CCP1(=O)O (stereo not shown)
3. Cn1nccc1-c1cc(F)ccc1CN1CCP(=O)(O)[C@](CCCCN)(C(=O)O)C1

Result:
1. 71
2. 68
3. 81

Please look at the items below and tell me inhibition at 0.01 µM for each one, in order.
1. NCCCC[C@@]1(C(=O)O)CN(Cc2ccc(F)cc2-c2cccc(O)c2)CCP1(=O)O
2. COc1cccc(-c2cc(F)ccc2CN2CCP(=O)(O)[C@](CCCCN)(C(=O)O)C2)c1
3. NCCCC[C@@]1(C(=O)O)CN(Cc2ccc(F)cc2-c2cncnc2)CCP1(=O)O

Result:
[70, 69, 68]

Please look at the items below and tell me inhibition at 0.01 µM for each one, in order.
1. NCCCC[C@@]1(C(=O)O)CN(Cc2ccccc2-c2cccc3cnccc23)CCP1(=O)O
2. NCCCC[C@@]1(C(=O)O)CN(Cc2ccc(F)cc2-c2cccc(F)c2)CCP1(=O)O
3. NCCCC[C@@]1(C(=O)O)CN(Cc2ccc(F)cc2-c2cc3ccccc3s2)CCP1(=O)O
4. COc1cccc(-c2ccccc2CN2CCP(=O)(O)[C@](CCCCN)(C(=O)O)C2)c1OC
5. NCCCC[C@@]1(C(=O)O)CN(Cc2ccc(Cl)cc2-c2ccc(F)cc2)CCP1(=O)O

Result:
79
71
71
71
71

Please look at the items below and tell me inhibition at 0.01 µM for each one, in order.
1. NCCCC[C@@]1(C(=O)O)CN(Cc2ccccc2-c2cncnc2)CCP1(=O)O
2. NCCCC[C@@]1(C(=O)O)CN(Cc2ccc(F)cc2-c2ccc(F)c(O)c2)CCP1(=O)O

Result:
1. 81
2. 70

Origin of values: patent US10138260B2
